So I've got a bunch of compounds here, and I need their IC50 values.
target: L-lactate dehydrogenase A chain (Homo sapiens); test: Inhibition of recombinant human LDHA using sodium pyruvate as substrate preincubated for 5 mins followed by diaphorase/resazurin addition and measured after 20 mins by fluorescence based assay
Give bare numbers, in nM.

> print(dat)
                              record.smiles                            assayed.system  assay.result
1  NS(=O)(=O)c1ccc(Cc2c(-c3ccc(F)c(Oc4cccc(F)c4)c3)nn(-c3nc(C(=O)O)cs3)c2CC2CC2)cc1F  L-lactate dehydrogenase A chain (Homo sapiens)            27
2  NS(=O)(=O)c1ccc(Cc2c(-c3cccc(N4CCC(C(F)(F)F)CC4)c3)nn(-c3nc(C(=O)O)cs3)c2CC2CC2)cc1F  L-lactate dehydrogenase A chain (Homo sapiens)            47
3  NS(=O)(=O)c1ccc(Cc2c(-c3cccc(OCc4ccccc4)c3)nn(-c3nc(C(=O)O)cs3)c2CC2CC2)cc1F  L-lactate dehydrogenase A chain (Homo sapiens)            19

Turning now to a further compound:
// query Form field - read-out: IC50; system: L-lactate dehydrogenase A chain (Homo sapiens); submitted item: COc1cc(-c2nn(-c3nc(C(=O)O)cs3)c(CC3CC3)c2Cc2ccc(S(N)(=O)=O)cc2)ccc1F
// result 8
